- Tested on: Enterovirus 6
- experiment: In vitro CPE assay in mammalian cell culture, EV6
- Assay type: cell-based
- details: viral cytopathic effect in mammalian cell culture, read-out: EV6 inhibition capacity (IC50)
measuredParameter: IC50

smilesentry=Cc1nc(NCc2ccncc2)n2nc(C)c(-c3ccc4c(c3)c(C)nn4C)c2n1 targetsystem="Enterovirus 6" endpointresult="< 1000 nM"
smilesentry=Cc1cc(NCc2cccs2)n2nc(C)c(-c3ccc4c(c3)c(C)nn4C)c2n1 targetsystem="Enterovirus 6" endpointresult="< 100 nM"
smilesentry=Cc1nc(NCc2ccc(NS(C)(=O)=O)cc2)n2nc(C)c(-c3ccc4c(c3)c(C)nn4C)c2n1 targetsystem="Enterovirus 6" endpointresult="< 1000 nM"
smilesentry=Cc1nc(NCc2ccc(S(N)(=O)=O)cc2)n2nc(C)c(-c3ccc4c(c3)c(C)nn4C)c2n1 targetsystem="Enterovirus 6" endpointresult="< 100 nM"
smilesentry=Cc1cc(NCc2ccc(S(C)(=O)=O)cc2)n2nc(C)c(-c3ccc4c(c3)c(C)nn4C)c2n1 targetsystem="Enterovirus 6" endpointresult="< 10 nM"
smilesentry=Cc1cc(NCc2ccc(Cl)cc2)n2nc(C)c(-c3ccc4c(c3)c(C)nn4C)c2n1 targetsystem="Enterovirus 6" endpointresult="< 1000 nM"
smilesentry=Cc1cc(NCc2ccncc2)n2nc(C)c(-c3ccc4c(c3)c(C)nn4C)c2n1 targetsystem="Enterovirus 6" endpointresult="< 100 nM"
smilesentry=Cc1cc(NCc2ccccc2)n2nc(C)c(-c3ccc4c(c3)c(C)nn4C)c2n1 targetsystem="Enterovirus 6" endpointresult="< 1000 nM"

---

- targetSystem: PI3Kα (Homo sapiens, UniProt P42336)
- Sequence (P42336 whole entry, species assumed): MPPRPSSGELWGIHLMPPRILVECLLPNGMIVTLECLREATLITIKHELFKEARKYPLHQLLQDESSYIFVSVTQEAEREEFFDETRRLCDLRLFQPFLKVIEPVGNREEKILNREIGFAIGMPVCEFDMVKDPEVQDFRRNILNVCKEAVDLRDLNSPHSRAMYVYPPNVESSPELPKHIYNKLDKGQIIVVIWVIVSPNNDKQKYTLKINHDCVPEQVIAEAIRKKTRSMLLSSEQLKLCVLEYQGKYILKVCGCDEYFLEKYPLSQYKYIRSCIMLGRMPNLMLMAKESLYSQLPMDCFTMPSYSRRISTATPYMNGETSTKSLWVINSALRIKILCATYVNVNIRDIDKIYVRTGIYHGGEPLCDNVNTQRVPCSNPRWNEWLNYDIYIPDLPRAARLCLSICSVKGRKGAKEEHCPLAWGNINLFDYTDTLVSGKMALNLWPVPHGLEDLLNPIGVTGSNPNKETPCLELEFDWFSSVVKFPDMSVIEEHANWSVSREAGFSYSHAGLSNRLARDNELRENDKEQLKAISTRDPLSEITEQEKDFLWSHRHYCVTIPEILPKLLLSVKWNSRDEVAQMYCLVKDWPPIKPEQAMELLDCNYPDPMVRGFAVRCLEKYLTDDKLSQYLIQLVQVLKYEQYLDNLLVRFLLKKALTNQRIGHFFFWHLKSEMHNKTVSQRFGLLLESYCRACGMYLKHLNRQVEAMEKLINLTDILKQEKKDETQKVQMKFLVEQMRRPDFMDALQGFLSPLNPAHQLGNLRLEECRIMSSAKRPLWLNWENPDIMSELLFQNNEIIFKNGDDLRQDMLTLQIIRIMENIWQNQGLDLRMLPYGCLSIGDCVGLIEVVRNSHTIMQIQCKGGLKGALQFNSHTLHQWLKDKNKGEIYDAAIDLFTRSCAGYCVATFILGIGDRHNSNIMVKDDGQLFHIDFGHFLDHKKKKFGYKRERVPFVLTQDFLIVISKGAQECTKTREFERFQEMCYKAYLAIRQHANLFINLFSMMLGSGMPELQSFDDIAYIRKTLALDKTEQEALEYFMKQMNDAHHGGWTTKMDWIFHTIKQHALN
- Sequence (P27986 whole entry partner, species assumed): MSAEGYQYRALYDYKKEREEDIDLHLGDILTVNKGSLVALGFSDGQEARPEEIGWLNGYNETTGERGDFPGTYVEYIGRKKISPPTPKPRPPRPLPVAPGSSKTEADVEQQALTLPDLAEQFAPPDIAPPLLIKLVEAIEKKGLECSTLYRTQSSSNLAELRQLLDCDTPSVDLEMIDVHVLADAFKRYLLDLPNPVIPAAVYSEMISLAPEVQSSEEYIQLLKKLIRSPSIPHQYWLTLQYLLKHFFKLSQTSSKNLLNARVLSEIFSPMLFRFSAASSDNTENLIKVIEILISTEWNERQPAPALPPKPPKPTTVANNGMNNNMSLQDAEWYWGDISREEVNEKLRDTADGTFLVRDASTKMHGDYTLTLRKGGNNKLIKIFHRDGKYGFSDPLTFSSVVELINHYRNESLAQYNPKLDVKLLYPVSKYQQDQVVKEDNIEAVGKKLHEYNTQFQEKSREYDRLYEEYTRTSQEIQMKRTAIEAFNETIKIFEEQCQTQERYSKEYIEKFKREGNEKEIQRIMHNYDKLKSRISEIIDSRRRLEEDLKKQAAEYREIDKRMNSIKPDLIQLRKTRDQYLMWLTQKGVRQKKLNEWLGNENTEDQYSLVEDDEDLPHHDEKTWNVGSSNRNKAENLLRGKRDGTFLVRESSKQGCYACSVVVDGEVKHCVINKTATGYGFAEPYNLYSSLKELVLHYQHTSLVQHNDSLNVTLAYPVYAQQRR
pIC50: −log10 of the molar value.
measuredParameter: pIC50

smilesentry=Cc1ccc(CNc2cc(C)nn3c(-c4ccc5c(c4)c(C)nn5C)c(C)nc23)cn1 measuredparameter=pIC50 endpointresult="< 6.00"
smilesentry=Cc1cc(NCc2ccc(S(C)(=O)=O)cc2)n2nc(C)c(-c3ccc4c(c3)c(C)nn4C)c2n1 measuredparameter=pIC50 endpointresult="< 6.00"
smilesentry=Cc1nc(NCc2ccncc2)n2nc(C)c(-c3ccc4c(c3)c(C)nn4C)c2n1 measuredparameter=pIC50 endpointresult="< 6.00"
smilesentry=Cc1cc(NCc2ccncc2)n2nc(C)c(-c3ccc4c(c3)c(C)nn4C)c2n1 measuredparameter=pIC50 endpointresult="< 6.00"

---

- Test system: coxsackie B3 virus
- experiment: In vitro CPE assay in mammalian cell culture, B3
- Assay type: cell-based
- details: Enterovirus B, viral cytopathic effect in mammalian cell culture, read-out: B3 inhibition capacity (IC50)
measuredParameter: IC50

molecule="Cc1cc(NCc2ccccc2)n2nc(C)c(-c3ccc4c(c3)c(C)nn4C)c2n1 [Example 18]" targetsystem="coxsackie B3 virus" endpointresult="< 0.1 µM"
molecule="COc1ccc(CNc2cc(C)nc3c(-c4ccc5c(c4)c(C)nn5C)c(C)nn23)cc1 [Example 10]" targetsystem="coxsackie B3 virus" endpointresult="< 0.1 µM"
molecule="COc1ccc(CNc2cc(C)nn3c(-c4ccc5c(c4)c(C)nn5C)c(C)nc23)cc1 [Example 6]" targetsystem="coxsackie B3 virus" endpointresult="< 1 µM"
molecule="Cc1cc(NCc2ccc(Cl)cc2)c2nc(C)c(-c3ccc4c(c3)c(C)nn4C)n2n1 [Example 3]" targetsystem="coxsackie B3 virus" endpointresult="< 1 µM"
molecule="Cc1cc(NCc2ccc(F)cc2)n2nc(C)c(-c3ccc4c(c3)c(C)nn4C)c2n1 [Example 19]" targetsystem="coxsackie B3 virus" endpointresult="< 0.1 µM"
molecule="COc1ccc(CNc2nc(C)nc3c(-c4ccc5c(c4)c(C)nn5C)c(C)nn23)cc1 [Example 21]" targetsystem="coxsackie B3 virus" endpointresult="< 0.1 µM"
molecule="Cc1cc(NCc2ccc(S(C)(=O)=O)cc2)c2nc(C)c(-c3ccc4c(c3)c(C)nn4C)n2n1 [Example 7]" targetsystem="coxsackie B3 virus" endpointresult="< 0.001 µM"
molecule="Cc1cc(NCc2ccc(C(F)(F)F)nc2)n2nc(C)c(-c3ccc4c(c3)c(C)nn4C)c2n1 [Example 17]" targetsystem="coxsackie B3 virus" endpointresult="< 1 µM"
